- Subject Of Test: LRRK2 (leucine-rich repeat kinase 2) (Mus musculus)
- Construct: endogenous LRRK2 in NIH3T3 cells
- Sequence (Q5S006 whole entry): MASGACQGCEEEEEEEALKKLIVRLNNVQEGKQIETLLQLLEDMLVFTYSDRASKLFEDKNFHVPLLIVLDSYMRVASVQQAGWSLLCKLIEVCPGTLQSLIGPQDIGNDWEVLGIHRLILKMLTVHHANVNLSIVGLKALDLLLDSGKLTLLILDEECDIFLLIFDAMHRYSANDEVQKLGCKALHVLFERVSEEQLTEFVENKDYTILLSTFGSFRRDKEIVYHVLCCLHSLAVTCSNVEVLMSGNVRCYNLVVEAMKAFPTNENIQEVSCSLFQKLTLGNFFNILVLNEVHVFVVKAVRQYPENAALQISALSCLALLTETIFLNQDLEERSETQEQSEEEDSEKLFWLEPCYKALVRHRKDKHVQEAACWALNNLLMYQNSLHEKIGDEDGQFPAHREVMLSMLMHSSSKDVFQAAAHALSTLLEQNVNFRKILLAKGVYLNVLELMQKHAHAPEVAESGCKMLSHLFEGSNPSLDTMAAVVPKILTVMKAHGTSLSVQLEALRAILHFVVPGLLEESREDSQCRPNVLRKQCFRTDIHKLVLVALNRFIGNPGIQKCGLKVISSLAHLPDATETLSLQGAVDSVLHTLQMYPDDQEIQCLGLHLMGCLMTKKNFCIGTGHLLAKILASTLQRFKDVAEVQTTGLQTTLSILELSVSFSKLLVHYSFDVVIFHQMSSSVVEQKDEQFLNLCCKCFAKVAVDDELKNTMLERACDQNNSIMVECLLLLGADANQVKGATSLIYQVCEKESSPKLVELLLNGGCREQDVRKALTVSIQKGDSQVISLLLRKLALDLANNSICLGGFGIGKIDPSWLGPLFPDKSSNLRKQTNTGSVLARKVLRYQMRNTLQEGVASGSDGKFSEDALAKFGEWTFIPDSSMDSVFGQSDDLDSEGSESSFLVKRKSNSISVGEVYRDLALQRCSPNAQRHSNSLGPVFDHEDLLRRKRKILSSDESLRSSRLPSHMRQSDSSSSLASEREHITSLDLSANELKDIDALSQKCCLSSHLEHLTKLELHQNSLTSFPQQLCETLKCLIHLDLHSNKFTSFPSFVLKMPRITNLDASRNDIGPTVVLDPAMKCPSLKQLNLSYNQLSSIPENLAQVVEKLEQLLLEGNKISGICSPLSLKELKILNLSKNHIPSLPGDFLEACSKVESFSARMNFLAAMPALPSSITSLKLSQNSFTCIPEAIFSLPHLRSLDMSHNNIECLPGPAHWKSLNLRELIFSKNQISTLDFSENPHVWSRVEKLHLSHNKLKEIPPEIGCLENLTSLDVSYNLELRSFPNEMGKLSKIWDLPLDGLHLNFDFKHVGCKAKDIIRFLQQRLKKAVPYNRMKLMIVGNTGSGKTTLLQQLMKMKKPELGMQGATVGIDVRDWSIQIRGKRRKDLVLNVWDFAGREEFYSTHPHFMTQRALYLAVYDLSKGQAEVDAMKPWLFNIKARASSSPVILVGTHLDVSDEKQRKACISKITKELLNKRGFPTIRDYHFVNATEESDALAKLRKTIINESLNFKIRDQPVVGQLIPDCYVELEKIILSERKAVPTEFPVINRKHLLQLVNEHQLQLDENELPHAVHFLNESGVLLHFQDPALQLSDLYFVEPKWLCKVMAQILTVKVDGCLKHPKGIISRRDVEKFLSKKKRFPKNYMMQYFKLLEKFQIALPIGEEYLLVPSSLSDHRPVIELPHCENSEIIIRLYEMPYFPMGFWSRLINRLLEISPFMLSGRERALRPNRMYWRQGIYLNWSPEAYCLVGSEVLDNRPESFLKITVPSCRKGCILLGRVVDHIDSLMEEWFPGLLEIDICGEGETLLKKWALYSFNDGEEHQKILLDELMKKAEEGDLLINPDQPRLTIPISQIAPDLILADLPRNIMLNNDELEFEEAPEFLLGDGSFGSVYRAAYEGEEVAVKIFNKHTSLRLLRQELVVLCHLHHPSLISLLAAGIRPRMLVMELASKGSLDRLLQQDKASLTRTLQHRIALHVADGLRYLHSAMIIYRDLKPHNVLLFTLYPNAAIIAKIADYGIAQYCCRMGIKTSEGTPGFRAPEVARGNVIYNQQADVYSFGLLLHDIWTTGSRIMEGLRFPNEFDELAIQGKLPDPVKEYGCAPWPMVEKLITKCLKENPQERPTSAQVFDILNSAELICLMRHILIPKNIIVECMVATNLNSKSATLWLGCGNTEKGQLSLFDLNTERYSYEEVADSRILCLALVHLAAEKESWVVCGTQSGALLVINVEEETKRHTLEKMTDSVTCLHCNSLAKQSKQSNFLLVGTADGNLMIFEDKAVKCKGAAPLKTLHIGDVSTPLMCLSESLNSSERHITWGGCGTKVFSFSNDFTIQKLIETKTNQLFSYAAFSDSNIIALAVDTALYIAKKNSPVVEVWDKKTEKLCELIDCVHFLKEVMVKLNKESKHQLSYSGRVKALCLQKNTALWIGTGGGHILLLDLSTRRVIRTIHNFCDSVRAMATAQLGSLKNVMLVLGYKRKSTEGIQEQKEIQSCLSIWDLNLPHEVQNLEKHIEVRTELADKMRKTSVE
- Assay Text: Western blot of LRRK2 pSer935 in NIH3T3 cells, […] min; also ex vivo mouse striatum and cortex
Observable: IC50
Field: value (include unit after the number)

Field request: IC50 | item: CC(=O)N1CCc2[nH]c(/C=C3\C(=O)Nc4ccc(OC(C)C)cc43)cc2C1 [Nov-LRRK2-11] 380 pM

Values compiled from paper PMC4194318.
